assay: Acute toxicity, LD50, Wistar rat; conditions: in vivo, im, male, intramuscular
Structures can show the parent of a compound that is named as a salt.
MEASUREMENT_LABEL: LD50 (mg/kg)

• CCCC(=O)N1CCCN(c2nc(N)c3cc(OC)c(OC)cc3n2)CC1 [bunazosin hydrochloride] = 205

Sourced from patent US4707477A
